Value source: patent US12577247B2

test: Pharmacokinetic study in rats; type: in vivo, male Sprague-Dawley (SD) rats; details: male, Sprague-Dawley, rat, plasma, po, Rat, oral vs IV bolus, doses per compound; read-out: % F (bioavailability)
valueKind: bioavailability

bioavailability recorded for this compound, Cc1cccc(CCNc2nc3c(C)c(C)nn3c(N)c2C#N)n1 , is < 1%

* * *

test: Pharmacokinetic study in rats; type: in vivo, male Sprague-Dawley (SD) rats; settings: male, Sprague-Dawley, plasma, po; Rat, p.o, 30 mg/kg; read-out: Cmax (head Co*/)
valueKind: Cmax
Express the reported value numerically, then name its unit.

Form field Cmax, entry CCc1c(C)nn2c(N)c(C#N)c(NCCc3ccn(C4COCC4CO)n3)nc12 (single isomer, unassigned; (-)) [Example 122b] : 0.983 µg/mL

* * *

target: A2A receptor (Homo sapiens); construct: host or cells: HEK-293; assay: A2aR antagonism IC50, cAMP TR-FRET in HEK-293 cells, high concentration of adenosine (30 μM); assay type: cell-based; details: HEK-293 cells expressing A2A receptor; agonist adenosine 30 μM; 2% HSA; inhibition of cAMP; read-out: A2AR IC50 (nM) (@30 μM Adenosine);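 further: compounds added 10 min before adenosine, then 30 min stimulation at room temperature in buffer with 100 µM rolipram and 30 µM EHNA, signal read 1 h after detection reagents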
Sequence (P29274 whole entry): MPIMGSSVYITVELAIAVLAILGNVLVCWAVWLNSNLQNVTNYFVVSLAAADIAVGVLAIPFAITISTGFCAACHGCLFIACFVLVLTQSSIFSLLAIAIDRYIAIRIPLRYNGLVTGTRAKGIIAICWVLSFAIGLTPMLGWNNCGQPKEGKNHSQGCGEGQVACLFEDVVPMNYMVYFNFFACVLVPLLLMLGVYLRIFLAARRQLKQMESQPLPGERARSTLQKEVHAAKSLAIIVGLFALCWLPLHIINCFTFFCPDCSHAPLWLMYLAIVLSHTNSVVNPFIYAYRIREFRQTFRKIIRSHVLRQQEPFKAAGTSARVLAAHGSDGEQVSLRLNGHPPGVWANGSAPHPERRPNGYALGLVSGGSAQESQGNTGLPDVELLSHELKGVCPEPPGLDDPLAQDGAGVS
For each record, write down the corresponding log10(IC50).
Use the decimal logarithm of IC50 (nM).

Respectfully, I request log10(IC50) for each entry included below.
1. Cc1nn2c(N)c(C#N)c(NCCc3cccc(C4CC4CO)n3)nc2c1Cl (centres unmarked)
2. CCc1c(C)nn2c(N)c(C#N)c(NCCc3ccn(C(C)(C)CO)n3)nc12
3. Cc1nn2c(N)c(C#N)c(NCCc3ccn(C4CCC4CO)n3)nc2c1Br (centres unmarked)

Result:
[2.25, 2.66, 2.45]

Provide each entry's log10(IC50) from the list below.
1. CCCc1c(C)nn2c(N)c(C#N)c(NCCc3cccc(C)n3)nc12
2. CCc1c(C)nn2c(N)c(C#N)c(NCCc3cccc(C4CC4CO)n3)nc12 (centres unmarked)
3. CCc1c(C)nn2c(N)c(C#N)c(NCCc3ccn(CCCO)n3)nc12
4. CCc1c(C)nn2c(N)c(C#N)c(NCCc3cccn(CC[S+](C)[O-])c3=O)nc12 (single isomer, unassigned; (-)) [Example 144b]
5. CCc1c(C)nn2c(N)c(C#N)c(NCCc3cccc(C(C)O)n3)nc12 (racemic) [Example 100]
6. Cc1nn2c(N)c(C#N)c(NCCc3cccn(CCCO)c3=O)nc2c1C
7. Cc1nn2c(N)c(C#N)c(NCCc3ccn(CC4CC(O)C4)n3)nc2c1Cl (single isomer, unassigned; (+)) [Example 83]

Result:
[3.92, 2.32, 2.82, 2.40, 2.14, 1.94, 2.04]

Okay, here is my list. What is log10(IC50) for each of these?
1. CCc1c(C)nn2c(N)c(C#N)c(NCCc3cccn(CCO)c3=O)nc12
2. Cc1nn2c(N)c(C#N)c(NCCc3ccn(C4CCC4CO)n3)nc2c1C (single isomer, unassigned; (-)) [Example 104b]
3. Cc1nn2c(N)c(C#N)c(NCCc3cccc(C4CC4CO)n3)nc2c1C (centres unmarked)
4. CCc1c(C)nn2c(N)c(C#N)c(NCCc3ccn(C4(CO)CC4)n3)nc12
5. Cc1nn2c(N)c(C#N)c(NCCc3ccn(C4(CO)CC4)n3)nc2c1CC1CCC1

Result:
2.59
2.01
2.54
2.08
2.91

Quick request: log10(IC50) for each listed item, please.
1. Cc1nn2c(N)c(C#N)c(NCCc3ccn(C4CCC4CO)n3)nc2c1C (racemic) [Example 103]
2. CCCc1c(C)nn2c(N)c(C#N)c(NCCc3ccn(C4CCC4CO)n3)nc12 (single isomer, unassigned; (+)) [Example 165a]
3. Cc1nn2c(N)c(C#N)c(NCCc3cccc(C4(CO)CC4)n3)nc2c1C
4. Cc1nn2c(N)c(C#N)c(NCCc3ccn(C(C)(C)CO)n3)nc2c1Cl

Result:
1. 2.00
2. 3.33
3. 2.80
4. 2.40

Need log10(IC50) for each of these compounds.
1. CCc1c(C)nn2c(N)c(C#N)c(NCCc3ccn(C4(CNCCO)CC4)n3)nc12
2. CCc1c(C)nn2c(N)c(C#N)c(NCCc3cccc(C(C)O)n3)nc12 (single isomer, unassigned; (-)) [Example 159b]
3. CCc1c(C)nn2c(N)c(C#N)c(NCCc3ccn(CCC[S+](C)[O-])n3)nc12 (single isomer, unassigned; (+)) [Example 162b]
4. CCc1c(C)nn2c(N)c(C#N)c(NCCc3cccn(CCC[S+](C)[O-])c3=O)nc12 (single isomer, unassigned; (-)) [Example 154a]
5. CCc1c(C)nn2c(N)c(C#N)c(NCCc3cccc(OCCO)n3)nc12
6. Cc1nn2c(N)c(C#N)c(NCCc3cccn(C)c3=O)nc2c1Cl
7. Cc1nn2c(N)c(C#N)c(NCCc3cccn(CCN)c3=O)nc2c1Cl

Result:
1.88
2.66
3.09
3.02
3.06
1.90
2.88

Give log10(IC50) for all compounds that follow.
1. CCc1c(C)nn2c(N)c(C#N)c(NCCc3ccn(C4(CN)CC4)n3)nc12
2. CCc1c(C)nn2c(N)c(C#N)c(NCCc3cccc(CNCCO)n3)nc12
3. Cc1nn2c(N)c(C#N)c(NCCc3ccn(C4CCC4CO)n3)nc2c1CC1CC1 (centres unmarked)
4. CCc1c(C)nn2c(N)c(C#N)c(NCCc3ccn(C4CC(CO)C4)n3)nc12 (centres unmarked)
5. CCc1c(C)nn2c(N)c(C#N)c(NCCc3ccn(C4CCC4CO)n3)nc12 (single isomer, unassigned; (+)) [Example 78]

Result:
1: 2.41; 2: 2.65; 3: 2.63; 4: 2.61; 5: 2.30
